# assayed target: SARS-CoV-2 spike protein receptor binding domain (RBD) (SARS-CoV-2, UniProt P0DTC2 319-539)
# assay notes: ELISA on plate-coated RBD
Overview of recorded EC50 for various binders
Numbers only; they are read as ng/mL.

# binder, EC50 (ng/mL)
measured = [
    ("C572 (antibody, V domains shown) VH: EVQLVESGGGLIKPGRSLRLSCTASGFTFGDYAMTWFRQAPGKGLEWVGFIRSKAYGGTTGYAASVKYRFTISRDDSKSIAYLQMDSLKTEDTAVYYCTRWDGWSQHDYWGQGTLVTVSS VL: DIVMTQSPLSLSVTPGEPASISCRSSQSLLHSNGNNYFDWYLQKPGQSPQLLIYLASNRASGVPDRFSGSGSGTDFTLKISRVEAEDVGVYYCMQVLQIPYTFGQGTKLEI", 2.9),
]

## Task Form field: reported EC50 of C703 (antibody, V domains shown) VH: EVQLLESGGGLVQPGGSLRLSCAGSGFTFSHYALSWVRQAPGKGLEWVSCISGTGGNSHYADSVKGRFTSSRDNSKNILYLQMNSLRAEDTAVYFCAKGGDFWSGYLIPFDSWGQGTLVTVSS VL: SYELTQSPSVSVAPGKTARITCGGDSIGSKNVHWYQQKPGQAPVLVMYYDNDRPSGIPERFSGYNSGNTATLSISRVEAGDEADYYCLVWDGSGDPWVFGGGTKLTVL
## Result 10.9

## Task Query (binder): C566 (antibody, V domains shown) VH: QVQLQESGPGLVKSSQTLSLNCSVFGASISSGGYYWTWIRQHPGKGLEWIGYIHYRGTYYNPSLKSRVTMSVDTSKNQFSLKVRSVSAADTAIYYCARAIVVVTLNWFDLWGQGTLVTVSS VL: NFMLTQPHSVSESPGKTVTISCSGSGGSIASNYVQWYQQRPGSAPTAVIYEDNQRPSGVPDRFSGSIDSSSNSASLTISGLKTEDEADYYCQSYDTSNPVIFGGGTKLTV ; field requested: EC50
## Result 5.88

## Task Entry under review: C571 (antibody, V domains shown) VH: EVQLVESGGGLIQPGGSLKLSCVVSGFTVSRNYISWVRQAPGKGLEWVSVLFAGGSTFYADSVKGRFAISRDNSNNTLFLQMNSLRVEDTAIYYCARGDGELIFDQWGQGTLVTVSS VL: QSVLTQPPSVSGAPGQRVTIVCTGTSSNIGAGYDVHWYQQLPGRAPKVLVSGNNIRPSEVPDRFSGSRSGTSASLAITSLQPEDEAQYYCQSYDSNLYAVFGGGTKLTVL . Reported EC50?
## Result 4.63

Values were extracted from patent US20220195015A1.
